target: Cytochrome P450 3A4 (Homo sapiens); test: qHTS Assay for Activators of Cytochrome P450 3A4 (AID 885); details: recombinant CYP3A4, Luciferin-PPXE luminescence, 60 min; series mostly up to 57.1 µM; note: nearly all actives have a fitted effect of over 65% in size
Calls of active or inactive are those of the source. Calls come from the whole dose curve; as a rule, active = well fitted activation curve with a large enough effect; inconclusive = small, poorly fitted or top-dose-only effect; inactive = no such curve, though single readings can be large or run the other way.
Select the matching outcome among yes (1) = active, no (0) = inactive

For orientation, consider the following solved cases.
compound	label
COc1cc(OC)c2c(=O)c(OC)c(-c3ccc(OC)c(OC)c3)oc2c1	no (0)
COc1ccccc1-c1cc(=O)c2cccc(OC)c2o1	no (0)
COc1c(O)cc(O)cc1O	no (0)
NS(=O)(=O)c1cc2c(cc1C(F)(F)F)N[C@H](Cc1ccccc1)NS2(=O)=O	no (0)
CO[C@H]1[C@H](O[C@H]2O[C@@H](C)[C@@H](O[C@@H]3C[C@](C)(O)[C@H](OC(=O)CC(C)C)[C@H](C)O3)[C@@H](N(C)C)[C@@H]2O)[C@@H](CC=O)C[C@@H](C)[C@@H](O)/C=C\C=C/C[C@@H](C)OC(=O)C[C@H]1OC(C)=O	no (0)
CC(=O)OC1CC2C(C)(C)C(O)CC(O)[C@@]2(C)C2CC[C@@]3(C)C(=CC(=O)OC3c3ccoc3)[C@]12C (stereo not given in full)	no (0)

Assay outcome for `COc1cc(OC)c2c(=O)c(O)c(-c3ccc(OC)c(OC)c3)oc2c1` : what was it?
no (0)

Dear colleague, could you share the recorded outcome for `CC(=O)OCC(=O)[C@@]1(OC(C)=O)[C@H](C)C[C@H]2[C@@H]3C[C@H](F)C4=CC(=O)C=C[C@@]4(C)[C@]3(F)[C@H](O)C[C@@]21C` when you have a moment?
yes (1)

Tell me the recorded outcome of this test for `COc1cc(OC)c2c(c1Cl)O[C@@]1(C2=O)[C@H](C)CC(=O)C[C@@H]1OC` .
no (0)

Which outcome was entered for the compound CC(=O)O[C@](C)(CCC=C(C)C)C1CC=C(C)CC1 (stereo not given in full) in this test?
no (0)

Tell me the assay call for `O=c1cc(-c2cccc(O)c2)oc2cc(O)ccc12` please.
no (0)

# fetch the recorded call for CCC1OC(=O)C(C)[C@@H](O[C@H]2C[C@@](C)(OC)C(O)C(C)O2)C(C)[C@@H](O[C@@H]2OC(C)CC(N(C)C)C2O)[C@@](C)(O)CC(C)C(=O)[C@@H](C)C(O)[C@]1(C)O (stereo not given in full) here
no (0)

I would be grateful if you could indicate the recorded call for CC(=O)OC1CC(OC(C)=O)[C@]2(C)C(CC(O)[C@]3(C)C2CC[C@@]2(C)C(c4ccoc4)OC(=O)C4O[C@]432)C1(C)C (stereo not given in full) .
no (0)

Query: recorded result category for `COc1ccc(/C=C/C(=O)c2ccc(O)cc2O)cc1OC` in this test
no (0)

Could you kindly confirm the outcome this assay logged for CC(Oc1ccccc1)C(=O)NC1C(=O)N2C(C(=O)O)C(C)(C)S[C@@H]12 (stereo not given in full) ?
no (0)

---

assay: qHTS profiling for inhibitors of Plasmodium falciparum proliferation (AID 504749);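 note: 0% = DMSO vehicle and full inhibition = artemisinin control; nearly all actives have a fitted effect of over 60% in size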; details: P. falciparum in erythrocytes, SYBR Green DNA, 72 h; at 28.7 µM (top of the series); parasite line B
Results filed as inconclusive are left out.
Kindly supply the reported activity, negative = inhibition values for the records listed here.
Give bare numbers, in %.

In the examples that follow, each entry is paired with its recorded activity, negative = inhibition.
molecule	activity, negative = inhibition, %
CCC(C)C(=O)OC1CC(O)C=C2C=CC(C)C(CCC(O)CC(O)CC(=O)O)C21 (stereo not given)	-21.8
Nc1nc(NC2CC2)c2ncn([C@H]3C=C[C@@H](CO)C3)c2n1	1.25

Dear colleague, could you please provide activity, negative = inhibition for the molecules listed below?
1. CC(C)=CCC[C@](C)(O)C1CC=C(C)CC1 (stereo not given in full)
2. CC(=O)OC1CCC2C3CCc4cc(O)ccc4C3CCC12C (stereo not given)
3. CN(C)CCCOC1C(C(O)CO)OC2OC(C)(C)O[C@@H]21 (stereo not given in full)
4. C[C@]1(c2ccccc2)OC(C(=O)O)=CC1=O
5. Cc1ccc2c(c1)c1c3n2CCN[C@H]3CCC1
6. C[C@@]12CCC(=O)C=C1C=CC1C2CC[C@]2(C)C1CC[C@@]21CCC(=O)O1 (stereo not given in full)

1. 7.19
2. 4.39
3. 11.3
4. 8.18
5. 1.18
6. -24.2

Could you report activity, negative = inhibition for every entry in the following list?
1. OCC1OC([S-])[C@H](O)C(O)C1O.[Au+] (stereo not given in full)
2. OCC1O[C@H](OC2C(CO)O[C@@](O)(CO)C2O)C(O)C(O)C1O (stereo not given in full)

1: -7.29; 2: 4.3

---

assay: qHTS drug screen for cell cycle checkpoint inhibitors in PARPi-resistant BRCA-mutant ovarian cancer cell lines. (AID 1963452); settings: PEO1/OlaR viability, CellTiter-Glo luminescence, 96 h; measured here: PEO1 parental Z-AUC; stronger effect = lower value
What Z-AUC was measured for each of the following?
Numbers only.

C=CC(=O)Nc1cccc(Oc2nc(Nc3ccc(N4CCN(C)CC4)cc3)nc3ccsc23)c1 -0.486

Hi, could you look up Z-AUC for each item in my list?
1. C[C@@H]1COCCN1c1cc(-c2ccnn2C)c2ccnc(-c3ccn[nH]3)c2n1
2. O=C(Nc1ncc(SCCN2CCCC2)s1)[C@]1(c2ccc(S(=O)(=O)C3CC3)cc2)C[C@H]1C1CCCCC1

1: -1.38; 2: -0.0651

Record Z-AUC for all entries; do not skip any.
1. C=CC(=O)N[C@H]1CN(c2nc(Nc3cn(C)nc3OC)c3ncn(C)c3n2)C[C@@H]1F
2. CC(/C=C/[C@@H]1C[C@]1(C)c1ccc2c(c1)C(C)(C)CCC2(C)C)=C\C(=O)O
3. Nc1nc(Nc2ccc3c(c2)CC[C@@H](N2CCCC2)CC3)nn1-c1cc2c(nn1)-c1ccccc1CCC2
4. COc1cc(OC)cc(N2CCN(C(=O)Nc3nc4cc(F)ccc4nc3OC)CC2)c1

1. 0.0382
2. 0.571
3. -0.494
4. -0.317

---

target: Rap guanine nucleotide exchange factor 3 (Homo sapiens); test: Confirmatory qHTS for antagonist of cAMP-regulated guanine nucleotide exchange factor 3 (EPAC1) (AID 1645880); details: EPAC1 Rap1B-BODIPY-GDP exchange, fluorescence; series mostly up to 115 µM; note: nearly all actives have a fitted effect of over 55% in size
Inconclusive results are not listed. Calls of active or inactive are those of the source. Calls follow the shape of the dose curve; as a rule, active = well fitted inhibition curve with a large enough effect; inconclusive = small, poorly fitted or top-dose-only effect; inactive = no such curve, though single readings can be large or run the other way.
Field 'call' accepts active, inactive

Illustrative cases are given below, each with its answer.
Nc1nnc(-c2cccc(F)c2)s1 inactive
CN(C)C(=O)c1cccc(-c2cnc3c(NC=O)cc(-c4ccc(F)cc4)cn23)c1 inactive

Please examine the following record next.
What did the test return for `COC1=NC(=C(c2ccccc2)c2ccccc2)OC1=O` ?
active

---

Assay: qHTS Assay for Lipid Storage Modulators (AID 1519)
Conditions: Drosophila S3 cells, BODIPY lipid droplet/cell ratio, laser cytometry; measured here: lipid channel max response; cells loaded with oleic acid
Experimental: NIH Molecular Libraries Probe Production Centers Network [MLPCN] NIH Chemical Genomics Center [NCGC] Assay Submitter (PI): Beller, Mathias; Max-Planck-Institut fur Biophysikalische Chemie […] We dispensed 4 uL of cells at 1.25 x 10^6 cells/mL into LoBase Aurora COC 1,536-well plates (black walled, clear bottom) with a bottle-valve solenoid-based dispenser (Aurora) to obtain 5,000 cells/well. […] The ratio of the total intensity in PMT channel 1 over total intensity of channel 3 was also calculated. […]
Results filed as inconclusive are left out.
measurement name: max response (%)
Give bare numbers, in %.

Some compounds with recorded max response:
compound	max response (%)
COc1ccc(CNc2ncncc2-c2ccccc2CN(C)C)c(OC)c1	19.6
CN1CC[C@@]23c4ccccc4N[C@H]1[C@]21CCN(C)[C@@H]3Nc2ccccc21	-11.8
COC1C=CO[C@@]2(C)Oc3c(C)c(O)c4c(O)c(c5c(nc6cc(C)ccn65)c4c3C2=O)NC(=O)/C(C)=C\C=CC(C)C(O)[C@@H](C)C(O)C(C)[C@@H](OC(C)=O)C1C (some centres undefined)	-14.4
CC(C)(C)NC[C@H](O)COc1cccc2c1CCC(=O)N2	-1.05
CC(C)C1=CC2=CC[C@@H]3[C@@](C)(C(=O)O)CCC[C@]3(C)C2CC1 (some centres undefined)	-0.672
CC1(C)OC2CC3C4CCC5=CC(=O)CCC5(C)C4(F)C(O)CC3(C)[C@]2(C(=O)CCl)O1 (some centres undefined)	26.2

For the 3 compounds below, give their max response values.
1. Clc1ccc([C@H](Cn2ccnc2)OCc2c(Cl)cccc2Cl)c(Cl)c1
2. C[C@@H]1C[C@H](OC(=O)c2ccccc2O)CC(C)(C)C1
3. C=CCO[C@@H](Cn1ccnc1)c1ccc(Cl)cc1Cl

1. -21.7
2. -10.7
3. -7.51
